These data points were gathered from PubChem BioAssay (NCI).

Assay: NCI Yeast Anticancer Drug Screen. Data for the cln2 rad14 strain (AID 165);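 further: 0% = growth equal to vehicle treated cultures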
Conditions: S. cerevisiae cln2 rad14 strain, at 50.0 µM
This is part of a sample that, as a whole, favours compounds with a hit. Of some 79,000 tested, about 15% had one in any assay. The source made the active and inactive calls. No stated cut-off is given here; in the data, active means growth inhibition above about 70%; inactive means the rest.
A correct response names exactly one class from active, inactive

Worked set:
smiles_str=SCCc1ccccn1 class=inactive
smiles_str=O=C(CCCO)N/N=C\c1ccc([N+](=O)[O-])s1 class=active
smiles_str=[C-]#[N+]C(C)(c1ccccc1)c1ccccc1 class=active

Q) Hi, sorry to bother you, what did the test record for CC(C=O)=C(c1ccccc1)c1ccccc1 ?
A) inactive

Q) O=C(Nc1ccc(NC(=O)Nc2cc(C(=O)Nc3ccc(C4=NCCN4)cc3)ccc2C(=O)Nc2ccc(C3=NCCN3)cc2)cc1)Nc1cc(C(=O)Nc2ccc(C3=NCCN3)cc2)ccc1C(=O)Nc1ccc(C2=NCCN2)cc1 , same question.
A) active

Q) Please answer likewise for COc1ccc(OC)c(C[P+](c2ccccc2)(c2ccccc2)c2ccccc2)c1
A) active

* * *

Test: NCI Yeast Anticancer Drug Screen. Data for the bub3 strain (AID 167)
Details: S. cerevisiae bub3 mutant strain, at 50.0 µM
The panel holds about 79,000 compounds, 15% with a hit somewhere; the sample as a whole holds those more often. Activity calls are given as the source filed them. No stated cut-off is given here; in the data, active means growth inhibition above about 70%; inactive means the rest.
Pick from true (1) = active, false (0) = inactive when you respond.

compound=CN(C)CC/[N+]([O-])=C(/c1ccccc1)C12CC3CC(CC(C3)C1)C2 class="false (0)"
compound="c1cc2ccc1C1NCCCN1CCN1CCCNC1c1ccc(cc1)C1NCCCN1CCN1CCCNC21 (configuration not stated)" class="false (0)"
compound=CC(C)(C)CC(=O)O class="false (0)"
compound=CCCCCCCCCCCCOC(=O)C[N+]1(C)CCCCC1 class="true (1)"

Q) Recorded test outcome, item Cc1cccc(CC(C)(C)C)c1NC(=O)C(=O)C(C(=O)c1ccc2ccccc2c1)C1OC(=O)c2ccccc21 (configuration not stated)
A) false (0)

Q) Another compound to look at: O=C1c2ccccc2C(=O)c2sc(Nc3ccc(Cl)c(Cl)c3)nc21
A) true (1)

Q) Also check Nc1ncnc2nn(C3OC(CO)C(O)C3O)nc12 (configuration not stated)
A) false (0)

Q) Now give it for O=C1OC(=O)c2ccc(S)c3cccc1c23 too.
A) true (1)

Q) Cool, now Cn1ncc2c(Nc3cccc(Cl)c3)nc(Nc3cccc(Cl)c3)nc21
A) true (1)

* * *

Test: NCI Yeast Anticancer Drug Screen. Data for the sgs1 mgt1 strain (AID 161);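 further: 0% = growth of cultures given vehicle only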
Details: S. cerevisiae sgs1 mgt1 strain, at 50.0 µM, hits give high values
Compounds without any hit were thinned out: in the full panel of roughly 79,000, 15% have a hit. The source made the active and inactive calls. No stated cut-off is given here; in the data, active means growth inhibition above about 70%; inactive means the rest.
Readout Kind: growth inhibition

Example compounds with recorded growth inhibition:
compound="O=C(Nc1ccc(Cl)cc1)OCC1C2C=CC(C2)C1CO (stereo not given)" readout_kind="growth inhibition" result="98.4% (active)"
compound="COC1(OC)C2(Cl)C(Cl)=C(Cl)C1(Cl)C1C2C2CC1(C(=O)O)c1ccccc12 (stereo not given)" readout_kind="growth inhibition" result="93% (active)"
compound=O=C(c1ccccc1)c1[nH]c2ccccc2c(=O)c1-c1ccc([N+](=O)[O-])cc1 readout_kind="growth inhibition" result="98.3% (active)"
compound=Cn1c(=O)c2c(nc([N+](=O)[O-])n2C)n(C)c1=O readout_kind="growth inhibition" result="76.9% (active)"

Q) Endpoint output: growth inhibition of CC(C)(C)C(=O)CC(Cc1nccc2ccccc12)c1ccco1 (stereo not given) . Value?
A) 98.7% (active)

Q) Lookup CN(C)CCCNc1c2ccccc2nc2ccc(F)cc12
A) 15.2% (inactive)

Q) Again, but for CCOC(=O)CC1=NC(=Nc2cc(Cl)ccc2Cl)SC1
A) 79.6% (active)

Q) Entry Clc1c2ccccc2cc2cccnc12 please
A) 48.8% (inactive)

Q) Try the compound Cc1ccc(OC/C=C/c2cccc(C#N)c2)cc1
A) -2.05% (inactive)

Q) Same read-out for c1ccc(CC[n+]2csc3ccccc32)cc1 ?
A) 36.3% (inactive)

* * *

Assay: NCI Yeast Anticancer Drug Screen. Data for the sgs1 mgt1 strain (AID 161);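 further: 0% = growth of cultures given vehicle only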
Conditions: S. cerevisiae sgs1 mgt1 strain, at 50.0 µM
Compounds without any hit were thinned out: in the full panel of roughly 79,000, 15% have a hit. The source made the active and inactive calls. Rule as the data show it: active = growth inhibition above about 70%; inactive = the rest.
Choose the fitting class; nothing outside YES = active, NO = inactive is accepted.

Take a look at these entries with their results.
compound=O=C1C(Cl)=C(Cl)C(=O)c2cc(Cl)c(Cl)cc21 class=YES
compound=O=C(CCCl)Nc1ccc(CCC(=O)c2ccccc2NC(=O)CCCl)cc1 class=YES
compound=N#C/C(=C\c1ccc(Cl)cc1Cl)C(N)=S class=YES
compound=C1=C(C2=CCCc3ccccc32)c2ccccc2CC1 class=NO
compound=Oc1[nH]c2ccccc2c1N=NC(=S)N1CCCCCC1 class=YES

Please examine the following record next.
Q) Check the results log: what was the call for CCC(C)N(C(=O)c1ccccc1)c1ccccc1 (centres undefined) ?
A) NO

* * *

Test: NCI Yeast Anticancer Drug Screen. Data for the bub3 strain (AID 167)
Conditions: S. cerevisiae bub3 mutant strain, at 5.0 µM (retest, dose inferred, filed as 0.5), hits give high values
About 79,000 compounds went through this panel and 15% of them were active in at least one assay; those are over-represented in the sample as a whole.
Readout Kind: growth inhibition (%)
Numeric only. Scale: %

compound=CCSC(=Nc1nc2ccc(NC(C)=O)cc2s1)SCC readout_kind="growth inhibition" result_number=-2
compound=CC(=O)Oc1c(C)cc([N+](=O)[O-])cc1[N+](=O)[O-] readout_kind="growth inhibition" result_number=9

Q) Please give the measured growth inhibition for this compound: C/C(=C/CC1CCC2C3=CCC4CC(O)CCC4(C)C3CCC12C)C(C)C(C)C (stereo not given)
A) -2

Q) # iterate: O=C1CC2Sc3ccccc3N=C2N1c1ccc(Cl)cc1Cl (stereo not given)
A) 39

Q) Do the same for COc1ccc(C2C3C(=O)OCCOC(=O)C3C2c2ccc(OC)c(OC)c2)cc1OC (stereo not given) please
A) 15

Q) Entry to check: CCN(CC)P(=S)(c1ccccc1CCP(=S)(c1ccccc1)c1ccccc1)N(CC)CC
A) -2

Q) Follow-up entry: O=c1[nH][nH]c(=O)c2c1nc(SCc1ccccc1)n2Cc1ccccc1
A) -6

Q) Another compound to check: CNC(=O)OCc1c(-c2ccccc2)c(-c2ccccc2)n(-c2ccc(OC)cc2)c1COC(=O)NC
A) 17

Q) Also check CCCCn1cnc2c(SCc3ccccc3[N+](=O)[O-])nc(N)nc21
A) 1

Q) Now try [O-][n+]1c2c(cc3ccccc31)Cc1ccccc1-2 .
A) 7

* * *

Overview of recorded growth inhibition for various molecules
Assay: NCI Yeast Anticancer Drug Screen. Data for the mec2-1 strain (AID 157)
Details: S. cerevisiae mec2-1 strain, at 50.0 µM (retest, dose inferred, filed as 5.0), hits give high values
About 79,000 compounds went through this panel and 15% of them were active in at least one assay; those are over-represented in the sample as a whole.
Give the value, in units of %, as a plain number.

# example entries with known answers
molecule=COc1cc2c(c(OC)c1OC)-c1ccc(SC)c(=O)cc1[C@@H](NC(=O)Oc1ccccc1)CC2 readout_kind="growth inhibition" result_number=29
molecule=CN(CCC(=O)/C(=C\c1ccc(Cl)cc1)c1ccccc1)Cc1ccccc1 readout_kind="growth inhibition" result_number=99
molecule=COc1cc(CNc2nc3ccccc3nc2-c2cccs2)cc(OC)c1OC readout_kind="growth inhibition" result_number=-22
molecule=C=CCOC(=O)SC(=S)OCN(C)C readout_kind="growth inhibition" result_number=99
molecule=Cc1ccc(S(=O)(=O)N2CCN(C)CC2)cc1 readout_kind="growth inhibition" result_number=26

Q) Entry CCCCCOC(=S)SSSC(=S)OCCCCC : reported growth inhibition = ?
A) 99

Q) Here is the next molecule: CCN(CC)C(=O)CCCC1CCCCC1
A) 4

* * *

Catalogue of growth inhibition readings, one per entry.
Assay: NCI Yeast Anticancer Drug Screen. Data for the rad50 strain (AID 155);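 further: 0% = growth of vehicle-only cultures of the same strain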
Conditions: S. cerevisiae rad50 strain growth inhibition; at 5.0 µM (retest, dose inferred, filed as 0.5); hits give high values
The panel holds about 79,000 compounds, 15% with a hit somewhere; the sample as a whole holds those more often. Activity calls are given as the source filed them. No stated cut-off is given here; in the data, active means growth inhibition above about 70%; inactive means the rest.

Example cases with answers are listed next.
compound=C#Cc1cccc(N=Cc2cc(Cl)cc(Cl)c2O)c1 readout_kind="growth inhibition" result="13% (inactive)"
compound="Cc1cc(C)c(O)c(C2CC3CCC2(C)C3(C)C)c1 (centres undefined)" readout_kind="growth inhibition" result="2% (inactive)"
compound=Cc1cc(CN(Cc2ccccc2)Cc2nc3ccccc3[nH]2)c(O)c(CN(Cc2nc3ccccc3[nH]2)Cc2nc3ccccc3[nH]2)c1 readout_kind="growth inhibition" result="7% (inactive)"
compound="CN(/N=C\\c1cccc([N+](=O)[O-])c1)C(c1cccc([N+](=O)[O-])c1)N(C)/N=C/c1cccc([N+](=O)[O-])c1 (centres undefined)" readout_kind="growth inhibition" result="-1% (inactive)"

Q) Which growth inhibition value is on record for Cc1c2cc[n+](C)cc2c(C)c2c1[nH]c1ccc(Cl)cc12 ?
A) 43% (inactive)

Q) Also need COc1c2c(cc3ccc(=O)oc13)C(Cl)C(Cl)O2 (centres undefined) , thanks.
A) 7% (inactive)

Q) Also check CN(C)c1ccc(C2CC(C)(N3CCCC3)Oc3cc4c(cc32)OCO4)cc1 (centres undefined)
A) 23% (inactive)

Q) Follow-up entry: O=C1/C(=C\c2ccc(Cl)cc2)SC2SC=C(c3ccc([N+](=O)[O-])cc3)N12 (centres undefined)
A) 0% (inactive)

Q) Entry to check: CC(C)Nc1nc(NC(C)C)c2cnn(-c3ccccc3)c2n1
A) 0% (inactive)

Q) What would you report for CC1=C(C(=O)OCCO[N+](=O)[O-])C(c2ccccc2[N+](=O)[O-])C(C(=O)OC(C)C)=C(C)N1 (centres undefined) ?
A) 11% (inactive)

Q) Likewise for Cc1ccc(N2CC3CC4(C)C=CC3(C2)O4)cc1 (centres undefined) ?
A) 6% (inactive)

Q) Now consider C=C(CN(C)C)C(=O)c1ccc(C)cc1C and answer again.
A) 34% (inactive)

Q) What would you report for CC(CCl)OC(=O)Nc1cccc(C(F)(F)F)c1 (centres undefined) ?
A) 55% (inactive)

Q) Further, for CN(C)c1ccc2c(NCCCCCCNc3ccnc4cc(N(C)C)ccc34)ccnc2c1 ?
A) 10% (inactive)

Q) Now this one: CCCCc1c2c(nc3c1CC/C(=C\c1ccccc1)C3=O)CCCC2
A) -23% (inactive)

Q) Entry to check: CC(C)CCSc1ncnc2nc[nH]c12
A) 1% (inactive)

Q) What do we get for CC/C(=C(\CC)c1ccc(O)c(CN(CC)CC)c1)c1ccc(OC)cc1 ?
A) -1% (inactive)

Q) Moving on to O=C(Nc1ccccc1C(=O)O)c1ccccc1
A) -7% (inactive)

Q) Do the same for O=C1C=CC(=O)N1C12CC3CC(CC(C3)C1)C2 please
A) 41% (inactive)

Q) Quick one: Oc1c(Cl)cc(Cl)cc1C=NCCSc1ccc(Cl)cc1
A) 33% (inactive)

Q) Also OC(c1cc(-c2ccccc2)nc2c(Cl)cc(Cl)cc12)C1CCCCN1 (centres undefined) , if possible.
A) 14% (inactive)

Q) Entry CC(C)(C)c1ccc(-c2nc3ccccc3c(=O)o2)cc1 please
A) -3% (inactive)
